Test: Assessment of early side effects in therapy mice
Details: endpoint of therapy
Starred links: 1 amine or outer side, 2 acyl side, 3 side chain; linkers in the order of their positions; H or OH if unused. Positions of bridges follow the written chain, without caps; N, C: chain ends. Non-standard residues stand in square brackets, D forms with d. Residues, ends and D or L forms follow the SMILES beside them. *: point of attachment. DOTA = O=C(O)CN1CCN(CC(=O)O)CCN(CC(=O)*)CCN(CC(=O)O)CC1; X1 = NC(=O)Nc1ccc(CC(N[*:1])C(=O)[*:2])cc1; Phe(4-Cl) = N[CH](Cc1ccc(Cl)cc1)C(=O)O
assay.endpoint: ALP (alkaline phosphatase) (U/L)
Output spec: scalar in U/L, unitless text.

Prompt: What value of ALP (alkaline phosphatase) has been reported for the following compound? CC(O)C1NC(=O)C(CCCCN)NC(=O)C(Cc2ccc(NC(N)=O)cc2)NC(=O)C(Cc2ccc(O)cc2)NC(=O)C(NC(=O)C(Cc2ccc(Cl)cc2)NC(=O)CN2CCN(CC(=O)O)CCN(CC(=O)O)CCN(CC(=O)O)CC2)CSSCC(C(=O)NC(Cc2ccc(O)cc2)C(N)=O)NC1=O (stereo not shown) [metal not drawn] ({DOTA}-[Phe(4-Cl)]CY[X1]KTCY-NH2; disulfide 2-7; configuration not given here)
Response: 65

---

Catalogue of ALB (albumin) readings, one per entry.
Test: Assessment of early side effects in therapy mice
Conditions: endpoint of therapy
Starred links: 1 amine or outer side, 2 acyl side, 3 side chain; linkers in the order of their positions; H or OH if unused. Positions of bridges follow the written chain, without caps; N, C: chain ends. Non-standard residues stand in square brackets, D forms with d. Residues, ends and D or L forms follow the SMILES beside them. *: point of attachment. DOTA = O=C(O)CN1CCN(CC(=O)O)CCN(CC(=O)*)CCN(CC(=O)O)CC1; X1 = NC(=O)Nc1ccc(CC(N[*:1])C(=O)[*:2])cc1; Phe(4-Cl) = N[CH](Cc1ccc(Cl)cc1)C(=O)O
Answer with the figure and its unit, nothing else.

Prompt: Which ALB (albumin) value is on record for CC(O)C1NC(=O)C(CCCCN)NC(=O)C(Cc2ccc(NC(N)=O)cc2)NC(=O)C(Cc2ccc(O)cc2)NC(=O)C(NC(=O)C(Cc2ccc(Cl)cc2)NC(=O)CN2CCN(CC(=O)O)CCN(CC(=O)O)CCN(CC(=O)O)CC2)CSSCC(C(=O)NC(Cc2ccc(O)cc2)C(N)=O)NC1=O (stereo not shown) [metal not drawn] ({DOTA}-[Phe(4-Cl)]CY[X1]KTCY-NH2; disulfide 2-7; configuration not given here) ?
Response: 22 ± 1 g/L

---

Assay: Assessment of early side effects in therapy mice
Conditions: endpoint of therapy
Positions of bridges follow the written chain, without caps; N, C: chain ends. Non-standard residues stand in square brackets, D forms with d. Residues, ends and D or L forms follow the SMILES beside them. *: point of attachment. DOTA = O=C(O)CN1CCN(CC(=O)O)CCN(CC(=O)*)CCN(CC(=O)O)CC1; dPhe(4-NHCONH2) = NC(=O)Nc1ccc(C[C@@H](N)C(=O)O)cc1; Phe(4-Cl) = N[C@@H](Cc1ccc(Cl)cc1)C(=O)O
assay.endpoint: ALB (albumin) (g/L)
Numbers only here, please. The scale is g/L.

{"molecule": "C[C@@H](O)[C@@H]1NC(=O)[C@H](CCCCN)NC(=O)[C@@H](Cc2c[nH]c3ccccc23)NC(=O)[C@H](Cc2ccc(O)cc2)NC(=O)[C@@H](NC(=O)[C@@H](Cc2ccccc2)NC(=O)CN2CCN(CC(=O)O)CCN(CC(=O)O)CCN(CC(=O)O)CC2)CSSC[C@@H](C(=O)N[C@H](CO)[C@@H](C)O)NC1=O [[^177Lu]Lu-DOTATOC] [metal not drawn]", "readout.number": 24}
{"molecule": "C[C@@H](O)[C@@H]1NC(=O)[C@H](CCCCN)NC(=O)[C@@H](Cc2ccc(NC(N)=O)cc2)NC(=O)[C@H](Cc2ccc(O)cc2)NC(=O)[C@H](NC(=O)[C@H](Cc2ccc(Cl)cc2)NC(=O)CN2CCN(CC(=O)O)CCN(CC(=O)O)CCN(CC(=O)O)CC2)CSSC[C@@H](C(=O)N[C@H](Cc2ccc(O)cc2)C(N)=O)NC1=O [metal not drawn] ({DOTA}-[Phe(4-Cl)][dC]Y[dPhe(4-NHCONH2)]KTC[dY]-NH2; disulfide 2-7)", "readout.number": 23}

Pending molecule:
Prompt: Which measured ALB (albumin) value corresponds to C[C@@H](O)[C@@H]1NC(=O)[C@H](CCCCN)NC(=O)[C@@H](Cc2c[nH]c3ccccc23)NC(=O)[C@H](Cc2ccc(O)cc2)NC(=O)[C@@H](NC(=O)[C@@H](Cc2ccccc2)NC(=O)CN2CCN(CC(=O)O)CCN(CC(=O)O)CCN(CC(=O)O)CC2)CSSC[C@@H](C(=O)N[C@H](CO)[C@@H](C)O)NC1=O [[^161Tb]Tb-DOTATOC] [metal not drawn] ?
Response: 23
